# Tested on: Fibroblast
# MEASUREMENT NOTES: Multiplex assay against human fibroblast
# Type: toxicity, cell-based
# RUN CONDITIONS: 24 h, 10 µM, compound concentration 10 uM, replicate 2
For each entry below, report its Population Pyknosed Nuclei (%) value.
Please give a number only; it is taken to be in %.

Exercise: Under Fibroblast: Population Pyknosed Nuclei (%) value of C=C1/C(=C\C=C2/CCC[C@]3(C)[C@@H]([C@H](C)/C=C/[C@H](C)C(C)C)CC[C@@H]23)C[C@@H](O)C[C@@H]1O [DOXERCALCIFEROL] ?
Key: 4

Exercise: What value of Population Pyknosed Nuclei (%) on Fibroblast does CCOC(=O)c1c(C)[nH]c2ccc3c(c12)CN1CCc2cc(OC)ccc2C1O3 (centres undefined) have?
Key: 41

Exercise: Given the entry `CCCS(=O)(=O)c1nc(NC2CC2)cc(-c2ccc3c(ccn3C3CC(C)(C)NC(C)(C)C3)c2)n1` , what Population Pyknosed Nuclei (%) was observed with Fibroblast?
Key: 15

Exercise: Return Population Pyknosed Nuclei (%) measured with Fibroblast given this molecule: `CCOc1cc(C(=O)N2CCC(N3CCN(C)CC3)CC2)ccc1Nc1ncc2c(n1)N(C1CCCC1)c1ccccc1C(=O)N2C`
Key: 59

Exercise: What Population Pyknosed Nuclei (%) appears in the records for this molecule with Fibroblast? CN1CCN(C(=O)C(C)(C)c2ccc(C(=O)Nc3cn4cc(-c5cc(C(C)(C)C)cc(C(C)(C)C)c5)ccc4n3)cc2)CC1 [T3-CLK-N]
Key: 13

Exercise: Recorded Population Pyknosed Nuclei (%) for COc1cc2ncnc(Nc3ccc(F)c(Cl)c3)c2cc1NC(=O)/C=C/CN1CCCCC1 [DACOMITINIB ANHYDROUS] with Fibroblast, please?
Key: 9

Exercise: # query: Population Pyknosed Nuclei (%) | item `O=C(Nc1cccnn1)N1CCC(=Cc2cccc(Oc3ccc(C(F)(F)F)cn3)c2)CC1` | system: Fibroblast
Key: 9

Exercise: Return Population Pyknosed Nuclei (%) measured with Fibroblast given this molecule: `COc1cc(N2CCN(C)CC2)ccc1Nc1ncc2c(n1)N(C)c1ccccc1C(=O)N2C`
Key: 25

Exercise: API: value(readout=Population Pyknosed Nuclei (%), system=Fibroblast) for record `Cl.Oc1ccc2c3c1O[C@H]1c4[nH]c5c(c4C[C@@]4(O)[C@@H](C2)N(CC2CC2)CC[C@]314)C[C@@]1(O)[C@H]2Cc3ccc(O)c4c3[C@@]1(CCN2CC1CC1)[C@H]5O4`
Key: 28

----------
Please respond with reported Population Mitochondria Different-Phenotype (%) for every item in the list.
# System: HEK-293T
# MEASUREMENT NOTES: Multiplex assay against HEK293T
# Format: toxicity, cell-based
# RUN CONDITIONS: human, 24 h, 1 µM, compound concentration 1 uM, replicate 1
State just the number; it will be interpreted in %.

Exercise: Reported Population Mitochondria Different-Phenotype (%) for `Cc1ccc(C(=O)Nc2cccc(C(F)(F)F)c2)cc1Nc1nc(-c2cccnc2)nc2c1cnn2C` : what is it?
Key: 92

Exercise: Suppose we examine the compound `CCn1cc(-c2ccnc3[nH]c(-c4cccc(CN(C)C)c4)cc23)c(-c2ccc(NC(=O)N(C)C)cc2)n1` ; what Population Mitochondria Different-Phenotype (%) value has been reported?
Key: 6

Exercise: Please give the measured Population Mitochondria Different-Phenotype (%) for this compound: `C=C1/C(=C\C=C2/CCC[C@]3(C)[C@@H]([C@H](C)/C=C/[C@H](C)C(C)C)CC[C@@H]23)C[C@@H](O)C[C@@H]1O`
Key: 63

Exercise: Field request: Population Mitochondria Different-Phenotype (%) | item: CN1CCC(=C2c3ccccc3CC(=O)c3sccc32)CC1.O=C(O)/C=C/C(=O)O [KETOTIFEN FUMARATE]
Key: 67

Exercise: Give its Population Mitochondria Different-Phenotype (%) value. Item: `C=CCn1c(=O)c2cnc(Nc3ccc(N4CCN(C)CC4)cc3)nc2n1-c1cccc(C(C)(C)O)n1`
Key: 5

Exercise: // lookup Population Mitochondria Different-Phenotype (%) for CN(C)C(=O)C(CCN1CCC(O)(c2ccc(Cl)cc2)CC1)(c1ccccc1)c1ccccc1.Cl [LOPERAMIDE HYDROCHLORIDE]
Key: 90

Exercise: # lookup: Population Mitochondria Different-Phenotype (%) of `Cn1nc(C(F)(F)F)cc1-c1cnc(N2CCc3cc(S(=O)(=O)Nc4c(F)cc(Cl)cc4F)cc(N4CCCC4=O)c32)nc1`
Key: 8

Exercise: Which Population Mitochondria Different-Phenotype (%) value is on record for `CCc1cccc(CC)c1NC(=O)c1nn(C)c2c1CCc1cnc(Nc3ccc(C(=O)NC4CCN(C)CC4)cc3OC(F)(F)F)nc1-2` ?
Key: 84

Exercise: Form field: reported Population Mitochondria Different-Phenotype (%) of `CN[C@@H]1C[C@H]2O[C@@](C)([C@@H]1OC)n1c3ccccc3c3c4c(c5c6ccccc6n2c5c31)C(=O)NC4`
Key: 16

Exercise: State the recorded Population Mitochondria Different-Phenotype (%) for this entry: `CN1CCN(C(=O)C(C)(C)c2ccc(C(=O)Nc3cn4cc(-c5cc(C(C)(C)C)cc(C(C)(C)C)c5)ccc4n3)cc2)CC1`
Key: 5

Exercise: Could you share which Population Mitochondria Different-Phenotype (%) value was measured for `COc1cc(N2CCN(C)CC2)ccc1Nc1ncc2c(n1)N(C)c1ccccc1C(=O)N2C` ?
Key: 75

Exercise: Requested field: Population Mitochondria Different-Phenotype (%). Item: `Cc1ccc2nc(NCCN)c3ncc(C)n3c2c1.O=C(O)C(F)(F)F.O=C(O)C(F)(F)F`
Key: 3

Exercise: Given the compound `Cl.O=c1c2cccn2c2ccccc2n1CCCN1CCC(c2ccc(Cl)cc2)CC1` , what is its reported Population Mitochondria Different-Phenotype (%)?
Key: 93

Exercise: Consider the compound shown here: `O=C(Nc1ccc(-c2ccnc(Nc3ccc(N4CCOCC4)cc3)n2)cc1)[C@@H]1CCCN1` What is its recorded Population Mitochondria Different-Phenotype (%)?
Key: 75

Exercise: So what's the measured Population Mitochondria Different-Phenotype (%) for this one? `O=C(Nc1ccc(-n2nc(-c3cccnc3)cc2C(F)(F)F)cn1)c1ccc(-c2ccccc2)c(F)c1`
Key: 59

Exercise: Requested field: Population Mitochondria Different-Phenotype (%). Item: `CCCn1c(=O)c2[nH]c(-c3cnn(Cc4cccc(C(F)(F)F)c4)c3)nc2n(CC)c1=O`
Key: 75

Exercise: Requested read-out: Population Mitochondria Different-Phenotype (%). Entry: `O=C(Nc1cccnn1)N1CCC(=Cc2cccc(Oc3ccc(C(F)(F)F)cn3)c2)CC1`
Key: 19

Exercise: Please look up its Population Mitochondria Different-Phenotype (%): `COc1ccc(-c2ccc3c(N4CCOCC4)nc(N4C[C@@H](C)O[C@@H](C)C4)nc3n2)cc1CO`
Key: 2
